Target: human arginase I (ARG I) (Homo sapiens, UniProt P05089)
Sequence (P05089 whole entry): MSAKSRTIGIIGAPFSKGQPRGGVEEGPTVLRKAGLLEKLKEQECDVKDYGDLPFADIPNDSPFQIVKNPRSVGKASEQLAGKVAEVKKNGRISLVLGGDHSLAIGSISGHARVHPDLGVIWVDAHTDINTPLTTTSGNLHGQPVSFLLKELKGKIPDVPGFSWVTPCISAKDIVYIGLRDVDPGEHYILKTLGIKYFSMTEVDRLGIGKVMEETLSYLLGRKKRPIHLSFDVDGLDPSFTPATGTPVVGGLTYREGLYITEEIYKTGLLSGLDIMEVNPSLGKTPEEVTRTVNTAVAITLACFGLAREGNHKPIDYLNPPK
Test: Inhibition of arginase I, spectrophotometric urea assay at 530 nm
Type: biochemical
Conditions: Formula I compounds, Table 2; read-out: Potency (ARG I)
Protocol: The assay established the concentration of inhibitor that is required to reduce arginase activity by 50% (IC50). Inhibition of arginase I (ARG I) and arginase II (ARG II) by Formula I and Formula II compounds is followed spectrophotometrically at 530 nm. The compound to be tested is dissolved in DMSO at an initial concentration 50-fold greater than its final concentration in the cuvette. […]
Structures can show the parent of a compound that is named as a salt.
Metric name: IC50

> print(dat)
                                   compound  metric.name             result
1  NC(CCCCB(O)O)(CCN1CC(O)C1)C(=O)O (centres unmarked) [compound 59, dihydrochloride]         IC50          1 to 2 µM
2  COc1ccccc1N1CCN(CCC(N)(CCCCB(O)O)C(=O)O)CC1 (centres unmarked) [compound 50, dihydrochloride]         IC50             > 5 µM
3  NC(CCCCB(O)O)(CCN1CCC[C@@H]1C(F)(F)F)C(=O)O (some centres unmarked) [compound 46, dihydrochloride]         IC50             > 5 µM
4  NC(CCCCB(O)O)(C(=O)O)C(O)c1cccnc1 (centres unmarked) [compound 112, dihydrochloride]         IC50          2 to 5 µM
5  CC1(C)CCN(CCC(N)(CCCCB(O)O)C(=O)O)CC1 (centres unmarked) [compound 128, dihydrochloride]         IC50      0.251 to 1 µM
6  NC(CCCCB(O)O)(CCCNCCc1ccc(Cl)cc1Cl)C(=O)O (centres unmarked) [compound 140, dihydrochloride]         IC50  0.0001 to 0.25 µM
7  CCN(CC)C(=O)C1CCCN(CCC(N)(CCCCB(O)O)C(=O)O)C1 (centres unmarked) [compound 23, dihydrochloride]         IC50      0.251 to 1 µM
8  NC(CCCCB(O)O)(CCC1Cc2ccccc2CN1CC1CCCCC1)C(=O)O (centres unmarked) [compound 134, dihydrochloride]         IC50  0.0001 to 0.25 µM

---

The following compounds are shown together with reported IC50 values.
molecular target: human arginase I (ARG I) (Homo sapiens); test: Inhibition of arginase I, spectrophotometric urea assay at 530 nm; type: biochemical; conditions: Formula I compounds, Table 2; read-out: Potency (ARG I)
Where a name gives a salt, the structure may show the parent alone.
Metric name: IC50

> print(dat)
                                   compound                             study.system           result
1  COc1ccc(CNCCC(N)(CCCCB(O)O)C(=O)O)cc1 (centres unmarked) [compound 69, dihydrochloride]  human arginase I (ARG I) (Homo sapiens)    0.1 to 250 nM
2  CC(C)CN1Cc2ccccc2CC1CCC(N)(CCCCB(O)O)C(=O)O (centres unmarked) [compound 135, dihydrochloride]  human arginase I (ARG I) (Homo sapiens)    0.1 to 250 nM
3  NC(CCCCB(O)O)(CCCOc1ccc(Cl)cc1)C(=O)O (centres unmarked) [compound 96, hydrochloride]  human arginase I (ARG I) (Homo sapiens)  1000 to 2000 nM
4  N[C@](CCCCB(O)O)(CCN1CCC(CCO)CC1)C(=O)O [compound 9, dihydrochloride]  human arginase I (ARG I) (Homo sapiens)    0.1 to 250 nM
5  NC(CCCCB(O)O)(CCN1CCCC1c1cc2ccccc2o1)C(=O)O (centres unmarked) [compound 42, dihydrochloride]  human arginase I (ARG I) (Homo sapiens)  2000 to 5000 nM
6  NC(CCCCB(O)O)C(=O)c1ccccc1 (centres unmarked) [compound 114, hydrochloride]  human arginase I (ARG I) (Homo sapiens)        > 5000 nM
7  COc1ccc(CCN(C)CC[C@](N)(CCCCB(O)O)C(=O)O)cc1OC [compound 6, dihydrochloride]  human arginase I (ARG I) (Homo sapiens)   251 to 1000 nM
8  CNC(CCCCB(O)O)(CCCNC1Cc2ccccc2C1)C(=O)O (centres unmarked) [compound 138, dihydrochloride]  human arginase I (ARG I) (Homo sapiens)    0.1 to 250 nM
